# System: NCI-H226 lung
# assay_explanation: NCI tumour cell line growth inhibition, 48 h
TGI values by entry
measurement_name: TGI

compound | measured_on | observed_measurement
COC(=O)[C@]1(C)CCC[C@]2(C)[C@@H](CCC(=O)C(C)C)[C@]3(C=O)O[C@@H]3C[C@H]21 | NCI-H226 lung | > 100 µM
O=C1/C(=C\c2ccccc2)CN(C(=O)c2ccccc2)C/C1=C\c1ccccc1 | NCI-H226 lung | > 100 µM
Cn1c(=O)c2[nH]c(CCCc3ccc([N+](=O)[O-])cc3)nc2n(C)c1=O | NCI-H226 lung | > 100 µM
C=CCC12CCC(=O)[C@@]1(C)CC=C(O)C2=O (stereo not given in full) | NCI-H226 lung | > 100 µM
NC(=S)N/N=C(\CCC(=O)Nc1ccccc1[N+](=O)[O-])CC(=O)c1ccco1 | NCI-H226 lung | > 100 µM
